Where do the numbers come from? From patent US20240108766A1.

Biological target: T1, human LRRC15 extracellular domain with C-terminal His tag (human, UniProt Q8TF66 22-538)
T1 construct: Recombinant, made in HEK293; the entry holds the extracellular domain and the His tag; SPR analyte; also called TPP-1545; hLRRC15 CT-His
T1 sequence: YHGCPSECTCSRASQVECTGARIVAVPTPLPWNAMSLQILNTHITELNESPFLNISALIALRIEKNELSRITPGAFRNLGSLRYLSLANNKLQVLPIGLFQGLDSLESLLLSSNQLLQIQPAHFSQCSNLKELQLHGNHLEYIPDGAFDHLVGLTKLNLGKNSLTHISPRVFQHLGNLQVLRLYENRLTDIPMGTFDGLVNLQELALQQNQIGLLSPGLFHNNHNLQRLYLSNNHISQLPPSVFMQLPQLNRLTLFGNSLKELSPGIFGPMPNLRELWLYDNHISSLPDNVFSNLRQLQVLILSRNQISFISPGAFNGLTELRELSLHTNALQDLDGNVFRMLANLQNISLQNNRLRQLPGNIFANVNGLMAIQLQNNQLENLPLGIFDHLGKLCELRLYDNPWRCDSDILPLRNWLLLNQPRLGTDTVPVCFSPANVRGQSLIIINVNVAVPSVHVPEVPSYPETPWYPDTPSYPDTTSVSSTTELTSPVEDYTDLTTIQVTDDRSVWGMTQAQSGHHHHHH
Experiment: calculated from SPR kd, 20°C
Can you tell me Complex Half Life for the items I'm about to list?

Binder	Complex Half Life
TPP-17074 (antibody, human IgG1, kappa, V domains shown, also called 438H-M161-K22-hIgG1) VH: EVQLLESGGGLVQPGGSLRLSCAASGFTFSGYMMSWVRQAPGKGLEWVSGIYPSGGYALYADSVKGRFTISRDNSKNTLYLQMNSLRAEDTAVYYCAREKAADLFGSYSEALDYWGQGTLVTVSS VL: DIQMTQSPDSLSASVGDRVTITCRASQDVGSWLAWYQQKPGKAPKLLIFAASYLESGIPSRFSGSGSGTDFTLTISSLQPEDFATYYCQQANGFPLTFGGGTKVEIKR	189 min
TPP-14389 (antibody, human IgG1, kappa, V domains shown, also called 13612-rec02-hIgG1Kappa) VH: EVQLLESGGGLVQPGGSLRLSCAASGFTFSGYMMSWVRQAPGKGLEWVSGIYPSPGYTYYADSVKGRFTISRDNSKNTLYLQMNSLRAEDTAVYYCAREKASDLFGSYSEALDYWGQGTLVTVSS VL: DIQMTQSPDSLSASVGDRVTITCRASQDVGSWLAWYQQKPGKAPKLLIFAASSLESGIPSRFSGSGSGTDFTLTISSLQPEDFATYYCQQANGFPLTFGGGTKVEIKR	24.6 min

# ---- query binder ----
Task: Field request: Complex Half Life | item: TPP-12942 (antibody, human IgG1, kappa, V domains shown, Prior art humanized IgG1 kappa antibody, used as comparator; also called huM25; huM25-hIgG1Kappa) VH: EVQLVQSGAEVKKPGASVKVSCKASGYKFSSYWIEWVKQAPGQGLEWIGEILPGSDTTNYNEKFKDRATFTSDTSINTAYMELSRLRSDDTAVYYCARDRGNYRAWFGYWGQGTLVTVSS VL: DIQMTQSPSSLSASVGDRVTITCRASQDISNYLNWYQQKPGGAVKFLIYYTSRLHSGVPSRFSGSGSGTDYTLTISSLQPEDFATYFCQQGEALPWTFGGGTKVEIKR
Output: 13.1 min
